IC50: recorded values
- STUDY_SYSTEM: NAD-dependent protein deacetylase sirtuin-2 (Homo sapiens, UniProt Q8IXJ6)
- Sequence (Q8IXJ6 whole entry): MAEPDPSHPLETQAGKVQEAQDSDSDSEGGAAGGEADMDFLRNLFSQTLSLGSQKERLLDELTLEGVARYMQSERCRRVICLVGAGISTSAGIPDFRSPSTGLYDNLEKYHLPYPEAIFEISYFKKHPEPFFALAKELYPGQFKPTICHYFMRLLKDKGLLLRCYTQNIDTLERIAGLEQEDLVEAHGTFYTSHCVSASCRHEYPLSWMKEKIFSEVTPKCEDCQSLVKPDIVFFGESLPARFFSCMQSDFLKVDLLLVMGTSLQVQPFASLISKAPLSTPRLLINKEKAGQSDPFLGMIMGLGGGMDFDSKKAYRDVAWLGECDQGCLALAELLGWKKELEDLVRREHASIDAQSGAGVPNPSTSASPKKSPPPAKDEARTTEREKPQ
API: value field is a number in µM; no unit string.

Illustrative cases are given below, each with its answer.
COc1ccc2[nH]c(=S)[nH]c2n1 16.3
S=c1[nH]c2ccc(Cl)nc2[nH]1 26.9
O=C(O)c1ccc2[nH]c(=S)[nH]c2c1 38.3

Now, please, on to the next compound.
**Query** Consider the compound shown here: O=c1[nH]c2cc([N+](=O)[O-])ccc2n1C1CCCCC1 What is its recorded IC50?
**Result** 34.4

---

inhibition: recorded values
- STUDY_SYSTEM: NAD-dependent protein deacetylase sirtuin-3, mitochondrial (Homo sapiens)
- Sequence (whole entry): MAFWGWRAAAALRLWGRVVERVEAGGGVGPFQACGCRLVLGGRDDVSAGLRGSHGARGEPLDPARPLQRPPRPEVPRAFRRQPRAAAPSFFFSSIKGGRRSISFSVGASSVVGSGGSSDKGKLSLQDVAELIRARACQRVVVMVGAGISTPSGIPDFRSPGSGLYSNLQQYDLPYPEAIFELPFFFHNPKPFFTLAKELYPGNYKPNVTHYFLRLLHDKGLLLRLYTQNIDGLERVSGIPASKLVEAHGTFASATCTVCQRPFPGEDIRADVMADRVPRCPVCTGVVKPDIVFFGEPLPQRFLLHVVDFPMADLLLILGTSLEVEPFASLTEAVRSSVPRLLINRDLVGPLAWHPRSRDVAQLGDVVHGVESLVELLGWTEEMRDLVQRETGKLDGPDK
- TEST_SUMMARY: Inhibition of human C-terminally His6-tagged Sirt3 using ZMAL as substrate at 50 uM after 4 hrs by homogeneous fluorescent deacetylase assay

Illustrative cases are given below, each with its answer.
COc1ccc(Cn2c(=O)[nH]c3cc([N+](=O)[O-])ccc32)c(OC)c1 < 10%
O=c1[nH]c2cc([N+](=O)[O-])ccc2n1C1CCCCC1 < 10%
O=C(O)c1ccc2[nH]c(=S)[nH]c2c1 < 10%
O=[N+]([O-])c1cc(C(F)(F)F)ccc1Nc1ccc2c(c1)OCO2 < 10%
O=c1[nH]c2cc(C(F)(F)F)ccc2n1-c1ccc2c(c1)OCO2 < 10%

Now, please, on to the next molecule.
**Query** Consider the molecule shown here: CC(C)(C)OC(=O)NCCCn1c(=S)[nH]c2cc([N+](=O)[O-])ccc21 What is its recorded inhibition?
**Result** < 10%

---

- STUDY_SYSTEM: NAD-dependent protein deacetylase sirtuin-1 (Homo sapiens)
- Sequence (Q96EB6 whole entry): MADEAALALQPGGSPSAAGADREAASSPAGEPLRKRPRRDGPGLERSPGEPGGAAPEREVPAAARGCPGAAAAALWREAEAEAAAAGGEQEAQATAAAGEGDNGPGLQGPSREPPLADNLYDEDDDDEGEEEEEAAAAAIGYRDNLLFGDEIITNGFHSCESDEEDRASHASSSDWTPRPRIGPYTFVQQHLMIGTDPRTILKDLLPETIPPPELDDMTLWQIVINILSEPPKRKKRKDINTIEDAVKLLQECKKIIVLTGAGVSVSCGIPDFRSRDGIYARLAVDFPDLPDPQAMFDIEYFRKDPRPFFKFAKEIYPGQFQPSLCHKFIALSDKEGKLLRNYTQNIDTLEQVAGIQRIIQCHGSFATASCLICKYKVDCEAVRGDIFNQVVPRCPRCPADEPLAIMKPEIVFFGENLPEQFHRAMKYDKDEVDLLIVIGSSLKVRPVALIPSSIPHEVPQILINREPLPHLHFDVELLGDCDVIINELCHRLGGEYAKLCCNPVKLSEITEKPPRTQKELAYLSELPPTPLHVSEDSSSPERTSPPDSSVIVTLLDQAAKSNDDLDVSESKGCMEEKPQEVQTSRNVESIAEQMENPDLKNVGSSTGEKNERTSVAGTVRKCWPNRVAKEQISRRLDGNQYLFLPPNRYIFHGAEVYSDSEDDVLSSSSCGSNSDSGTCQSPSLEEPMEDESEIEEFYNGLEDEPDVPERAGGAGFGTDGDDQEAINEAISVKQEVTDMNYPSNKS
- TEST_SUMMARY: Inhibition of SIRT1
READOUT_LABEL: IC50 (µM)
API: value field is a number in µM; no unit string.

**Query** Consider the molecule shown here: Cc1ccc(C2CC(=O)Nc3ccc4cc(C)ccc4c32)cc1 (stereo unspecified) What is its recorded IC50?
**Result** 0.098
